Target: FLuc-C-HiBiT (Photinus pyralis)
Construct: firefly luciferase with C-terminal HiBiT tag, E. coli expressed
Experiment: biochemical
Details: enzyme activity, 10 uM ATP; read-out: IC50 or SDR50 (mM) / FLuc E
quantity.name: IC50 (mM)

[1] COc1ccc(-c2cc(N3CCCC(NC(=O)c4ccsc4)C3)[nH]n2)cc1 (stereo not shown)
[2] COc1ccc(-n2nc(C)c([C@@H]3C=C[C@@H](NC(=O)Nc4cccc(C#N)c4)C3)c2C)cc1
Would you mind telling me which has the lower recorded IC50 between 1 and 2 ? Indicate which entry you chose by stating its label. 1

[A] Cc1ccc(OCc2nc(C3CN(C(=O)c4n[nH]c5ccccc45)C3)no2)cc1
[B] Cn1cc(CN2CCc3nc(C(=O)Nc4ccccc4)oc3CC2)cn1
Would you mind telling me which has the lower recorded IC50 between A and B ? Indicate which entry you chose by stating its label. A

[I] C[C@@H]1CN(c2cnc3ccccc3n2)CC[C@@]1(O)C1CCC1
[II] Cc1ccc(-c2nnc(SCc3ccccc3C#N)o2)cc1
[III] Clc1ccc(-c2nc(-c3ccccn3)no2)cc1Cl
[IV] Clc1cccc(-n2ncc3c(N4CCCCC4)ncnc32)c1
Put these in order: smallest IC50 first, largest last. Your reply should list the labels following the order given in the request. IV, II, III, I
(IV: 0.000989 mM, II: 0.00221 mM, III: 0.00556 mM, I: 0.0111 mM)

###

Biological target: FLuc-C-HiBiT (firefly luciferase) (Photinus pyralis, UniProt P08659, form not given/L550V)
Sequence (P08659 2-550 L550V, form open): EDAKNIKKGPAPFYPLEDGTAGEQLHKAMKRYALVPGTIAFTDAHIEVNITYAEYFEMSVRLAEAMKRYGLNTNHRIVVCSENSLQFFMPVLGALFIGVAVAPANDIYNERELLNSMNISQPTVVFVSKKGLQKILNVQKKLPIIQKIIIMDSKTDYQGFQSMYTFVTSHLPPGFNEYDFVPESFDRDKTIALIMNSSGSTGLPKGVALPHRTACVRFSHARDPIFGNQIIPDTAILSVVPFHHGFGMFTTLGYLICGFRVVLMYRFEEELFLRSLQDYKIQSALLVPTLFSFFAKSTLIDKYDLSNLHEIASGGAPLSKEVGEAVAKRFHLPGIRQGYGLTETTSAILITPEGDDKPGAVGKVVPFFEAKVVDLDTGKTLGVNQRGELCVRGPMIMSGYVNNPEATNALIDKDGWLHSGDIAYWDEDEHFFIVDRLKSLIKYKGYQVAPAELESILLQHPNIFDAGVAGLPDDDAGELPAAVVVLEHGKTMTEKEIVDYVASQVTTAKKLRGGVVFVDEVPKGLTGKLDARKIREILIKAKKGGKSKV
Assay: SDR assay, FLuc-C-HiBiT
Conditions: 10 nM FLuc-C-HiBiT; normalized activity; Log [Compound], M -7.35
quantity.name: SDR No ATP

compound	measured.on	readout.number
CNC(=O)c1cccc2c1CCN2C(=O)Nc1ccc(C)cc1 [compound 00430160]	FLuc-C-HiBiT (firefly luciferase) (Photinus pyralis, UniProt P08659, form not given/L550V)	11.6
COc1ccc(-c2nc(-c3ccc(C(=O)O)cc3)no2)cc1 [compound 00168104]	FLuc-C-HiBiT (firefly luciferase) (Photinus pyralis, UniProt P08659, form not given/L550V)	8.8
Cc1ccc(-n2ncc3c(N4CCCCCC4)ncnc32)cc1 [compound 00139018]	FLuc-C-HiBiT (firefly luciferase) (Photinus pyralis, UniProt P08659, form not given/L550V)	11.4

###

Biological target: FLuc-C-HiBiT (Photinus pyralis, UniProt P08659)
Construct: firefly luciferase with C-terminal HiBiT tag, E. coli expressed
Sequence (P08659 whole entry, looked up): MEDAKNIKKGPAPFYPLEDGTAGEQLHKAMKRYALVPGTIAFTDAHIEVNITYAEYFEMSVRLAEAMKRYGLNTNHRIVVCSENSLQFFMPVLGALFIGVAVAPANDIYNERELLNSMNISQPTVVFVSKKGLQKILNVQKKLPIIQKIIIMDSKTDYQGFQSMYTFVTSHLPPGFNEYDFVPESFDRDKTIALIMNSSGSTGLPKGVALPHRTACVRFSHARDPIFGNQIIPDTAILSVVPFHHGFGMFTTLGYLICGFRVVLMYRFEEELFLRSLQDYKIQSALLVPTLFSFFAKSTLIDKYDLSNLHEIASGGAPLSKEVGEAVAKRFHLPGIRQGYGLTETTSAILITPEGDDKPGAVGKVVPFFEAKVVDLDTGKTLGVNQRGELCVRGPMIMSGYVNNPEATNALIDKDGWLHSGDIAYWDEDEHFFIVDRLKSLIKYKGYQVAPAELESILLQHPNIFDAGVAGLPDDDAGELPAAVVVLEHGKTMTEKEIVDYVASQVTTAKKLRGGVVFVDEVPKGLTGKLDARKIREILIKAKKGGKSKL
Experiment: biochemical
Settings: enzyme activity, 10 uM ATP; read-out: IC50 or SDR50 (mM) / FLuc E
quantity.name: IC50 (mM)

[1] Cc1cccc(NC(=O)Nc2ccc(F)cc2)n1 [NCGC00106833-01]
[2] COc1cccc(CN2CCNc3cc(Nc4cccnc4)ncc3C2)c1 [NCGC00411206-01]
[3] C[C@@H]1CN(c2nc(-c3ccccc3)no2)CC[C@@]1(O)C1CCC1 [NCGC00439928-01]
[4] CN1c2cc(C(=O)Nc3ccc4c(c3)OCCO4)ccc2C(=O)N2CCCC21 (centres unmarked) [NCGC00452151-01]
Rank the listed molecules, smallest IC50 first and largest last. Your reply should list the labels following the order given in the request. 3, 4, 1, 2
(3: 0.00176 mM, 4: 0.00785 mM, 1: 0.0124 mM, 2: 0.018 mM)

###

Target: PKA-N-HiBiT (Homo sapiens, UniProt P17612)
Experiment: SDR assay, PKA-N-HiBiT
Settings: PKA-N-HiBiT qHTS, SDR assay; average maximal response
quantity.name: SDR Ave Max Response

Solved cases below.
compound	measured.on	readout.number
CN1CCN(CCOc2cc(OC3CCOCC3)c3c(Nc4c(Cl)ccc5c4OCO5)ncnc3c2)CC1	PKA-N-HiBiT (Homo sapiens, UniProt P17612)	3.81
CC1(C)OCCn2c1nc1c(N3CCOCC3)nc(-c3cnc(N)nc3)nc12	PKA-N-HiBiT (Homo sapiens, UniProt P17612)	3.97

[P] CN1CCN(c2ccc(Nc3ncc4cc(C#N)c(=O)n(C5CCCC5)c4n3)cc2)CC1
[Q] CCOc1ccn(-c2ccc(F)cc2)c(=O)c1C(=O)Nc1ccc(Oc2ccnc(N)c2Cl)c(F)c1
[R] Cc1ccc(-n2nc(C(C)(C)C)cc2NC(=O)NCc2cc(F)ccc2Oc2ccc3c(cnn3CCO)c2)cc1
[S] NC1(C(=O)N[C@@H](CCO)c2ccc(Cl)cc2)CCN(c2nc[nH]c3nccc2-3)CC1
Put these in order: smallest SDR Ave Max Response first, largest last. Your reply should list the labels following the order given in the request. R, P, Q, S

[P] Cc1cc(F)ccc1-c1nc(NCCNC(=N)NC#N)nc2c1ccc(=O)n2-c1c(F)cccc1F
[Q] COc1cc2c(Oc3ccc4[nH]c(C)cc4c3F)ncnc2cc1OCCCN1CCCC1
Would you mind telling me which has the lower recorded SDR Ave Max Response between P and Q ? Indicate which entry you chose by stating its label. P
(P: 3.70, Q: 5.41)

###

Target: FLuc-C-HiBiT (Photinus pyralis)
Construct: firefly luciferase with C-terminal HiBiT tag, E. coli expressed
Assay: biochemical
Settings: enzyme activity, 10 uM ATP; read-out: IC50 or SDR50 (mM) / FLuc E
quantity.name: IC50 (mM)

compound	IC50 (mM)
CC(C)c1ccc(NC(=O)C2CCN(C(=O)c3ncn4c3COC(c3ccccc3)C4)CC2)cc1 (stereo not shown)	0.00351

[A] Cc1ccc(C(=O)Nc2ccccc2C(=O)O)cc1[S+](=O)([O-])N1CCCCCC1
[B] CCc1ccc(NC(=O)c2cc3ccccn3n2)cc1
Would you mind telling me which has the lower recorded IC50 between A and B ? Indicate which entry you chose by stating its label. B
(B: 0.00176 mM, A: 0.00279 mM)

###

Target: FLuc-C-HiBiT (Photinus pyralis, UniProt P08659)
Construct: firefly luciferase with C-terminal HiBiT tag, E. coli expressed
Assay: biochemical
Details: enzyme activity, 10 uM ATP; read-out: IC50 or SDR50 (mM) / FLuc E
quantity.name: IC50 (µM)

[1] COc1ccc(-c2cc3nc4c(c(=O)n3[nH]2)CN(C(=O)NCc2ccco2)CC4)cc1 [NCGC00440289-01]
[2] COCC1CCN(c2ccc(-c3nc(-c4ccccc4C)no3)cn2)C1 (centres unmarked) [NCGC00427117-01]
[3] CCNC(=O)N[C@@H]1C=C[C@@H](c2c(C)nn(-c3ccc(C(C)C)cc3)c2C)C1 [NCGC00399948-01]
[4] Fc1ccc(-c2cn3cc(Cc4ccccc4Cl)sc3n2)cc1 [NCGC00102130-01]
Rank the listed molecules, smallest IC50 first and largest last. Your reply should list the labels following the order given in the request. 4, 3, 1, 2
(4: 0.989 µM, 3: 2.86 µM, 1: 11.1 µM, 2: 17.6 µM)

[1] CC(=O)N[C@@H]1C=C[C@@H](c2c(C)nn(-c3ccc(C(C)(C)C)cc3)c2C)C1 [NCGC00397882-01]
[2] Cc1ccc(C2=NOC3(CCN(C(=O)c4cccc(N(C)C)c4)CC3)N2)cc1 [NCGC00446875-01]
[3] Cc1ccc(C2=CC(c3ccccc3F)n3c(nc4ccccc43)N2)cc1C (centres unmarked) [NCGC00140809-01]
Put these in order: smallest IC50 first, largest last. Your reply should list the labels following the order given in the request. 3, 2, 1

###

Molecular target: FLuc-C-HiBiT (Photinus pyralis)
Construct: firefly luciferase with C-terminal HiBiT tag, E. coli expressed
Experiment: biochemical
Settings: enzyme activity, 10 uM ATP; read-out: IC50 or SDR50 (mM) / FLuc E
quantity.name: IC50 (mM)

Solved cases below.
molecule	measurement.unit	IC50
O=C(NCc1ccccc1F)C1CCN(C(=O)c2ncn3c2COC(c2ccccc2)C3)CC1 (centres unmarked)	mM	0.00351
CCc1ccc(-c2nc(CSCC(=O)NCc3ccc(C)cc3)c(C)o2)cc1	mM	0.014

[a] O=C([C@@H]1C[C@@H](O)[C@H](O)[C@@H]2NC(=S)N(c3ccc4c(c3)OCO4)[C@@H]21)N1CCOCC1
[b] Cc1ccc(-c2cc3c(=O)n(CCNC(=O)Cc4cccc(F)c4)ccn3n2)c(C)c1
Would you mind telling me which has the lower recorded IC50 between a and b ? Indicate which entry you chose by stating its label. b

###

Target: UniProtKB P08659
Test: FLuc enzymatic luminescence assay, P. pyralis FLuc
Type: biochemical
Settings: FLuc enzymatic assay; Clade S follow-up; read-out: IC50 or SDR50 (mM) FLuc E
compounds and their reported IC50
Entry rule: numbers only, all in mM.

compound	IC50 [mM]
Cc1ccc(C2Cn3cnc(C(=O)N4CCC(C(=O)NCc5ccc(F)cc5)CC4)c3CO2)cc1 (stereo not drawn)	0.00988
O=C(Nc1ccc(F)cc1)C1CCN(C(=O)c2ncn3c2COC(c2ccc(F)cc2)C3)CC1 (stereo not drawn)	0.00988

Okay, now this compound:
Give me measured IC50, please, for this compound: COc1ccc(NC(=O)C2CCN(C(=O)c3ncn4c3COC(c3ccccc3)C4)CC2)cc1Cl (stereo not drawn) 0.00044
